Parameter Measured: pKi
Schema: pKi number; meaning minus log10 of the concentration expressed in molar units.

Incoming: Param request: pKi | system Insulin-like growth factor-binding protein 3 (Homo sapiens, UniProt P17936) | item O=C(O)c1cc2cc(O)c(O)cc2c(C(O)c2cccc(F)c2)n1 (stereo not given)
Outgoing: 7.62

Incoming: Determine reported pKi for O=C(O)c1cc2cc(O)c(O)cc2c(C(=O)c2ccc(Oc3cc(Cl)cc(Cl)c3)c(F)c2)n1 ; test system: Insulin-like growth factor-binding protein 3 (Homo sapiens, UniProt P17936).
Sequence (P17936 whole entry): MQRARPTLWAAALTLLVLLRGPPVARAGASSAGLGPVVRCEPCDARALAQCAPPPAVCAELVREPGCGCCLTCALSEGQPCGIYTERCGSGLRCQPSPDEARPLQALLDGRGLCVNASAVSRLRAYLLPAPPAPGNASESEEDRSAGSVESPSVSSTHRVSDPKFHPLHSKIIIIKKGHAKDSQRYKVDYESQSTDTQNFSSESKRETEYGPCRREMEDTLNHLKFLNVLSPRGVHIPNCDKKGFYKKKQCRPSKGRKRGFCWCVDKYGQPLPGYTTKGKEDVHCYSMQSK
Outgoing: 8.05

Incoming: Look up and report measured pKi (Insulin-like growth factor-binding protein 3 (Homo sapiens, UniProt P17936)) for the following compound: Cc1cc(C)c(C(O)c2nc(C(=O)O)cc3cc(O)c(O)cc23)c(C)c1 (stereo not given)
Outgoing: 7.96

Incoming: Fill: pKi (Insulin-like growth factor-binding protein 3 (Homo sapiens, UniProt P17936)) for this compound O=C(O)c1cc2cc(O)c(O)cc2c(C(=O)c2ccc(Oc3ccc(-c4ccccc4)cc3)c(F)c2)n1
Outgoing: 7.49

Incoming: Please report pKi with Insulin-like growth factor-binding protein 3 (Homo sapiens, UniProt P17936) for item Nc1cc2cc(C(=O)O)nc(C(=O)c3ccc(O)c(O)c3)c2cc1O .
Outgoing: 7.22

Incoming: Please respond with reported pKi (system Insulin-like growth factor-binding protein 3 (Homo sapiens, UniProt P17936)) for Cc1cc(C)c(C(=O)c2nc(C(=O)O)cc3cc(O)c(O)cc23)c(C)c1 .
Outgoing: 7.00

Incoming: For Insulin-like growth factor-binding protein 3 (Homo sapiens, UniProt P17936), give the measured pKi of the entry Cc1ccc(Oc2ccc(C(=O)c3nc(C(=O)O)cc4cc(O)c(O)cc34)cc2F)cc1
Outgoing: 8.03

Incoming: Give the observed pKi of O=C(O)c1cc2cc(O)c(O)cc2c(C(=O)c2ccc(Oc3ccc(Cl)cc3)c(F)c2)n1 for Insulin-like growth factor-binding protein 3 (Homo sapiens, UniProt P17936).
Outgoing: 7.70

Incoming: Give pKi for O=C(O)c1cc2cc(O)c(O)cc2c(C(=O)c2ccc(Oc3cccc(Cl)c3)c(F)c2)n1 tested on Insulin-like growth factor-binding protein 3 (Homo sapiens, UniProt P17936).
Outgoing: 7.96

Incoming: Please tell me the measured pKi for Nc1cc2cc(C(=O)O)nc(C(=O)c3ccc4c(c3)OCO4)c2cc1O ; system: Insulin-like growth factor-binding protein 3 (Homo sapiens, UniProt P17936).
Outgoing: 6.07

----------
Heads up, these compounds all have pKi values measured for Insulin-like growth factor-binding protein 3 (Homo sapiens, UniProt P17936).
pKi field: float, defined as -log10 of concentration (mol/L).

Incoming: Fill in reported pKi for this entry: O=C(O)c1cc2cc(O)c(O)cc2c(C(=O)c2ccc(Cl)c(Cl)c2)n1
Outgoing: 7.54

Incoming: Could you please provide reported pKi for O=C(O)c1cc2cc(O)c(O)cc2c(C(O)c2ccc(Oc3ccccc3)cc2)n1 (stereo not given) ? Thanks!
Outgoing: 7.49

Incoming: Item O=C(O)c1cc2cc(O)c(O)cc2c(C(=O)c2cccc(F)c2)n1 : provide pKi
Outgoing: 6.96

Incoming: Consider the compound O=C(O)c1cc2cc(O)c(O)cc2c(C(=O)c2ccc(F)c(F)c2)n1 . State its measured pKi.
Outgoing: 7.29

Incoming: Return value of pKi for input Nc1ccc(C(=O)c2nc(C(=O)O)cc3cc(O)c(O)cc23)cc1 , no commentary.
Outgoing: 6.89
